TARGET_DESC: Estrogen receptor (Mus musculus) (UniProt O08537+P19785)
Sequence (O08537 whole entry, looked up): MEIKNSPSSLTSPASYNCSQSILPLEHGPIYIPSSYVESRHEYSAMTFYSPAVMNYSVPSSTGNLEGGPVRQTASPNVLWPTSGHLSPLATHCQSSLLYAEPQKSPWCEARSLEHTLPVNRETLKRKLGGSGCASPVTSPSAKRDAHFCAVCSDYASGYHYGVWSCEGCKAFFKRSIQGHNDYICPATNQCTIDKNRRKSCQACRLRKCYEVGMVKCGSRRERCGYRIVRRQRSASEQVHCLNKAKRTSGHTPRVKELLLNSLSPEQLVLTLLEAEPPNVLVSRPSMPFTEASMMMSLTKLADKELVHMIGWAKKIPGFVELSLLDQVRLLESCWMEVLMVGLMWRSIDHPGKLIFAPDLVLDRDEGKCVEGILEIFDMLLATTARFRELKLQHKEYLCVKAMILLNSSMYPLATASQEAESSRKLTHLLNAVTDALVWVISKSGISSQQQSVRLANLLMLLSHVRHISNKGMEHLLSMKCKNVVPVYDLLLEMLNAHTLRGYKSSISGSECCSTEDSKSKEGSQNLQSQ
Sequence (P19785 whole entry, looked up): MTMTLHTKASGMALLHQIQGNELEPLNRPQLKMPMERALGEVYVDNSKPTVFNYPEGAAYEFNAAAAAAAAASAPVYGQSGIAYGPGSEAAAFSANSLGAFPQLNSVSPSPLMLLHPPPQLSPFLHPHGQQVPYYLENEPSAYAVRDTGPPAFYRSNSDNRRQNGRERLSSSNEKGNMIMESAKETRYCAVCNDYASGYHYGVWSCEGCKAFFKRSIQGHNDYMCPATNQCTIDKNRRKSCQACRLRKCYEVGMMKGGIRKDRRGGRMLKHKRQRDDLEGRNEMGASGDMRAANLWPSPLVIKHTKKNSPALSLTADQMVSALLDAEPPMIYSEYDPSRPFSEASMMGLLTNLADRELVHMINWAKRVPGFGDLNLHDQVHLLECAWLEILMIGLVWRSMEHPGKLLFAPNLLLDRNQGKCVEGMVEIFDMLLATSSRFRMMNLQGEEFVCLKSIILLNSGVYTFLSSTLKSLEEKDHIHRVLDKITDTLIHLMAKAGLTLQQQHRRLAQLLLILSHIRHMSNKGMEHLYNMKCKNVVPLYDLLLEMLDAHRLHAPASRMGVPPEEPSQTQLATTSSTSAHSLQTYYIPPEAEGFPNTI
EXPERIMENT_NOTES: Relative binding affinity (RBA) for murine cytoplasmic estrogen receptor at 4C for 2 hr
Format: protein assay
PARAMETER: RBA
Lab note: jot the number down without any unit.

Reference set (4 entries):
INSERT INTO assay_data (query_smiles, obs_value) VALUES
  ('C[C@]12CC[C@@H]3c4cc(F)c(O)cc4CC[C@H]3[C@@H]1CC[C@@]2(O)/C=C/I', 30.4),
  ('C[C@]12CC[C@@H]3c4ccc(O)c(F)c4CC[C@H]3[C@@H]1CC[C@@]2(O)/C=C\I', 47.4),
  ('C[C@]12CC[C@@H]3c4ccc(O)c(F)c4CC[C@H]3[C@@H]1CC[C@@]2(O)/C=C/I', 58.7),
  ('C#C[C@]1(O)CC[C@H]2[C@@H]3CCc4c(ccc(O)c4F)[C@H]3CC[C@@]21C', 80);

Note: attention shifts to another entry.
Exercise: State its RBA for this molecule: C[C@]12CC[C@@H]3c4cc(F)c(O)cc4CC[C@H]3[C@@H]1CC[C@@]2(O)/C=C\I
Solution: 40.1
